Entries annotated with measured melting point
Value Kind: melting point

>>> result("CC(=O)NC(C(=O)O)C(C)(C)SSC(=N)Nc1ccc(Cl)cc1.Cl (stereo not drawn)")
"143 to 145 °C"
>>> result("COC(=O)C(NC(C)=O)C(C)(C)SSC(=N)N.Cl (stereo not drawn)")
"190 to 192 °C"
>>> result("CNC(=N)SSC(C)(C)C(NC(C)=O)C(=O)O.Cl (stereo not drawn)")
"153 to 155 °C"
>>> result("CC(=O)NC(C(=O)O)C(C)(C)SSC(=N)Nc1ccccc1Cl.Cl (stereo not drawn)")
"152 to 154 °C"
>>> result("CC(=O)NC(C(=O)O)C(C)(C)SSC(=N)Nc1ccccc1.Cl (stereo not drawn)")
"155 to 157 °C"
>>> result("CC(=O)NC(C(=O)O)C(C)(C)SSC(=N)N.Cl (stereo not drawn)")
"154 to 156 °C"
>>> result("CC(=O)NC(CSSC(=N)N)C(=O)O.Cl (stereo not drawn)")
"70 to 72 °C"
>>> result("COc1ccc(NC(=N)SSC(C)(C)C(NC(C)=O)C(=O)O)cc1.Cl (stereo not drawn)")
"142 to 144 °C"
>>> result("CC(=O)NC(C(=O)O)C(C)(C)SSC(=N)Nc1ccc(C(F)(F)F)cc1.Cl (stereo not drawn)")
"151 to 153 °C"

FYI, the data here is from patent US11926580B2.
